These data points were gathered from patent US20210255193A1.

- targetSystem: POLR2L DNA-directed RNA polymerases I, II, and III subunit (Homo sapiens)
- Construct: isoTOP-ABPP experiments performed in cell lysates (in vitro); endogenous in cells; host or cells: soluble proteome of human cancer cell lines (MDA-MB-231, Ramos, Jurkat)
- testSummary: competitive isoTOP-ABPP
- Format: binding
- setupConditions: 50 uM_231_sol_in vitro
Measured isoTOP-ABPP ratio, lysine P62875_K67 of individual entries
Write no unit; give the number alone.

These recorded examples may help you get a feel for the data.
- compound: "O=C(Oc1c(F)c(F)c(C(F)(F)F)c(F)c1F)c1cc(C(F)(F)F)cc(C(F)(F)F)c1"
  isoTOP-ABPP ratio, lysine P62875_K67: 1.0
- compound: "O=C(CCc1ccc2c(c1)OCO2)Oc1ccc([N+](=O)[O-])cc1[N+](=O)[O-]"
  isoTOP-ABPP ratio, lysine P62875_K67: 2.8
- compound: "O=C(ON1C(=O)CCC1=O)c1cc(C(F)(F)F)cc(C(F)(F)F)c1"
  isoTOP-ABPP ratio, lysine P62875_K67: 1.0
- compound: "N#Cc1ccc(C(=O)Oc2ccc([N+](=O)[O-])cc2[N+](=O)[O-])cc1 [fragment 44, 2,4-Dinitrophenyl 4-cyanobenzoate]"
  isoTOP-ABPP ratio, lysine P62875_K67: 1.0
- compound: "O=C(Oc1c(F)c(F)cc(F)c1F)c1cc(C(F)(F)F)cc(C(F)(F)F)c1"
  isoTOP-ABPP ratio, lysine P62875_K67: 0.9

Field isoTOP-ABPP ratio, lysine P62875_K67 (system: POLR2L DNA-directed RNA polymerases I, II, and III subunit (Homo sapiens)) for entry NC(=O)c1cc(C(F)(F)F)cc(C(F)(F)F)c1 [fragment 51, reference compound] = 1.0
